Experimental Parameters: in acetonitrile, 283.15 K
Quantity Measured: solubility (mole fraction)
Give bare numbers.

Per the record, "NC(=O)[C@@H]1CCCN1" has solubility (mole fraction) of 0.0634

====

Experimental Parameters: in n-hexane, 278.15 K
Quantity Measured: solubility (mole fraction)
Answers are plain numbers.

The molecule "NC(=O)[C@@H]1CCCN1" showed solubility (mole fraction) equal to 6e-05

====

Experimental Parameters: in DMF, 288.15 K
Quantity Measured: solubility (mole fraction)
Answers are plain numbers.

In plain terms, "NC(=O)[C@@H]1CCCN1" has a documented solubility (mole fraction) of 0.0758

====

Experimental Parameters: in n-hexane, 313.15 K
Quantity Measured: solubility (mole fraction)

Lab note: "NC(=O)[C@@H]1CCCN1" gave solubility (mole fraction) of 0.00112

====

Experimental Parameters: in n-propanol, 313.15 K
Quantity Measured: solubility (mole fraction)
Answers are plain numbers.

Please fill in: solubility (mole fraction) reported for "NC(=O)[C@@H]1CCCN1" = 0.204

====

Experimental Parameters: in acetone, 278.15 K
Quantity Measured: solubility (mole fraction)
Answers are plain numbers.

According to the records, this compound "NC(=O)[C@@H]1CCCN1" displays solubility (mole fraction) of 0.0644

====

Experimental Parameters: in isopropanol, 298.15 K
Quantity Measured: solubility (mole fraction)
One number for each entry.

"NC(=O)[C@@H]1CCCN1" yielded solubility (mole fraction) of 0.125

====

Experimental Parameters: in ethyl acetate, 313.15 K
Quantity Measured: solubility (mole fraction)
One number for each entry.

Per the records, this molecule ( "NC(=O)[C@@H]1CCCN1" ) has solubility (mole fraction) equal to 0.0927

====

Experimental Parameters: in n-heptane, 313.15 K
Quantity Measured: solubility (mole fraction)
Give bare numbers.

Record summary for "NC(=O)[C@@H]1CCCN1" : reported solubility (mole fraction) = 0.00239

====

Experimental Parameters: in n-propanol, 278.15 K
Quantity Measured: solubility (mole fraction)

Form: molecule = "NC(=O)[C@@H]1CCCN1" ; solubility (mole fraction) = 0.0467

====

Experimental Parameters: in ethyl acetate, 308.15 K
Quantity Measured: solubility (mole fraction)
Give bare numbers.

Entry "NC(=O)[C@@H]1CCCN1" — recorded solubility (mole fraction) = 0.0711

====

Experimental Parameters: in DMF, 298.15 K
Quantity Measured: solubility (mole fraction)
One number for each entry.

# solubility (mole fraction) of "NC(=O)[C@@H]1CCCN1" = 0.123

====

Experimental Parameters: in DMF, 278.15 K
Quantity Measured: solubility (mole fraction)
Give bare numbers.

For reference, reported solubility (mole fraction) for "NC(=O)[C@@H]1CCCN1" stands at 0.0422

====

Experimental Parameters: in acetonitrile, 323.15 K
Quantity Measured: solubility (mole fraction)
Give bare numbers.

Quick note, solubility (mole fraction) for "NC(=O)[C@@H]1CCCN1" landed at 0.148

====

Experimental Parameters: in cyclohexane, 288.15 K
Quantity Measured: solubility (mole fraction)

Please fill in: solubility (mole fraction) reported for "NC(=O)[C@@H]1CCCN1" = 0.00014
